experiment_summary: Inhibition of PRL-3-mediated cell migration in human DLD1 cells after 15 hrs by crystal violet staining based microscopic assay
measured_endpoint: IC50 (µM)
Answer with a number only, understood to be in µM.

Output IC50 of Cc1cc(O)c2c(c1)C(=O)c1cc(O)cc(O)c1C2=O 28
